Test system: MDBK cell line
Assay: Cytotoxicity, MDBK cell tests
Conditions: read-out: CC50 (Table 8, BVDV); cytotoxicity

| Compound | CC50 |
| --- | --- |
| Nc1nc2c(ncn2[C@@H](C=O)O[C@@H](C=O)CO)c(=O)[nH]1 [Dialdehyde-guanosine, dialdehyde form of guanosine] | > 6 mM |

###

System: MDBK cell line
Assay: Cytotoxicity, MDBK cell tests
Conditions: read-out: CC50 (Table 9, BRV); cytotoxicity

| Compound | Study target | CC50 |
| --- | --- | --- |
| O=C[C@@H](CO)O[C@H](C=O)n1cnc2c(=O)[nH]cnc21 [Dialdehyde-inosine, dialdehyde form of inosine] | MDBK cell line | > 10 mM |
| O=C[C@@H](CO)O[C@H](C=O)n1cnc2c(=O)[nH]c(=O)[nH]c21 [Dialdehyde-xanthosine, dialdehyde form of xanthosine] | MDBK cell line | > 10 mM |
| Nc1nc2c(ncn2[C@@H](C=O)O[C@@H](C=O)CO)c(=O)[nH]1 [Dialdehyde-guanosine, dialdehyde form of guanosine] | MDBK cell line | > 6 mM |

###

System: Vero cell line
Assay endpoint: CC50

| Compound | Result |
| --- | --- |
| Nc1nc2c(ncn2[C@@H](C=O)O[C@@H](C=O)CO)c(=O)[nH]1 [Dialdehyde-guanosine, dialdehyde form of guanosine] | > 6 mM |

###

Test system: BRV
Test: BRV infection inhibition in MDBK cells (RT-qPCR)
Assay type: cell-based, Bovine Rotavirus
Conditions: Rotavirus A, 96 h; MDBK cells, 200 TCID50/well BRV, after 4 days; read-out: BRV infection inhibition concentration IC50
Protocol: The next day, BRV of 200 TCID50/well and inosine, xanthosine and guanosine in the dialdehyde and acyclic diol forms were treated to the cells simultaneously, and after 4 days, using commercialized Viral gene (DNA/RNA) extraction kit (iNtRON, 101410754), RNA was isolated. […]
molecules and their reported IC50
Assay endpoint: IC50 (µM)

| Molecule | Study target | Recorded number |
| --- | --- | --- |
| O=C[C@@H](CO)O[C@H](C=O)n1cnc2c(=O)[nH]cnc21 [Dialdehyde-inosine, dialdehyde form of inosine] | BRV | 107 |
| O=c1[nH]cnc2c1ncn2[C@@H](CO)OC(CO)CO [Acyclic diol-inosine, acyclic diol form of inosine] | BRV | 1930 |
| O=C[C@@H](CO)O[C@H](C=O)n1cnc2c(=O)[nH]c(=O)[nH]c21 [Dialdehyde-xanthosine, dialdehyde form of xanthosine] | BRV | 50.5 |
| O=c1[nH]c(=O)c2ncn([C@@H](CO)OC(CO)CO)c2[nH]1 [Acyclic diol-xanthosine, acyclic diol form of xanthosine] | BRV | 1560 |
| Nc1nc2c(ncn2[C@@H](CO)OC(CO)CO)c(=O)[nH]1 [Acyclic diol-guanosine, acyclic diol form of guanosine] | BRV | 1760 |

###

Test system: Swine Influenza virus (SIV)
Experiment: organism not typed
Assay type: cell-based
Conditions: MDCK, 96 h, read-out: SIV infection inhibition concentration IC50
pIC50: −log10 of the molar value.

| Molecule | pIC50 |
| --- | --- |
| O=c1[nH]cnc2c1ncn2[C@@H](CO)OC(CO)CO [Acyclic diol-inosine, acyclic diol form of inosine] | 2.21 |
| Nc1nc2c(ncn2[C@@H](CO)OC(CO)CO)c(=O)[nH]1 [Acyclic diol-guanosine, acyclic diol form of guanosine] | 2.32 |
| O=C[C@@H](CO)O[C@H](C=O)n1cnc2c(=O)[nH]cnc21 [Dialdehyde-inosine, dialdehyde form of inosine] | 3.26 |
| O=C[C@@H](CO)O[C@H](C=O)n1cnc2c(=O)[nH]c(=O)[nH]c21 [Dialdehyde-xanthosine, dialdehyde form of xanthosine] | 3.13 |
| O=c1[nH]c(=O)c2ncn([C@@H](CO)OC(CO)CO)c2[nH]1 [Acyclic diol-xanthosine, acyclic diol form of xanthosine] | 2.17 |

###

System: PRV
Experiment: microbe, parasite or virus in culture
Assay type: cell-based, Porcine Rotavirus
Settings: Rotavirus C, Vero, 72 h, read-out: PRV infection inhibition concentration IC50
pIC50: −log10 of the molar value.

| Molecule | Study target | Inequality sign | pIC50 |
| --- | --- | --- | --- |
| O=c1[nH]c(=O)c2ncn([C@@H](CO)OC(CO)CO)c2[nH]1 [Acyclic diol-xanthosine, acyclic diol form of xanthosine] | PRV | = | 2.47 |
| Nc1nc2c(ncn2[C@@H](CO)OC(CO)CO)c(=O)[nH]1 [Acyclic diol-guanosine, acyclic diol form of guanosine] | PRV | = | 2.47 |
| O=C[C@@H](CO)O[C@H](C=O)n1cnc2c(=O)[nH]cnc21 [Dialdehyde-inosine, dialdehyde form of inosine] | PRV | = | 4.02 |
| O=c1[nH]cnc2c1ncn2[C@@H](CO)OC(CO)CO [Acyclic diol-inosine, acyclic diol form of inosine] | PRV | = | 2.55 |
| O=C[C@@H](CO)O[C@H](C=O)n1cnc2c(=O)[nH]c(=O)[nH]c21 [Dialdehyde-xanthosine, dialdehyde form of xanthosine] | PRV | ≥ | 4.00 |

###

Test system: MDCK cell line
Assay: Cytotoxicity, MDCK cell tests
Settings: read-out: CC50 (Table 5, SIV); cytotoxicity

| Compound | CC50 |
| --- | --- |
| Nc1nc2c(ncn2[C@@H](C=O)O[C@@H](C=O)CO)c(=O)[nH]1 [Dialdehyde-guanosine, dialdehyde form of guanosine] | > 6 mM |

###

Recorded measurements of pIC50, one per entry
System: NDV
Assay: microbe, parasite or virus in culture
Type: cell-based, Avian Newcastle Disease virus
Conditions: avian paramyxovirus 1, Vero, 72 h, read-out: NDV infection inhibition concentration IC50
pIC50: −log10 of the molar value.

| Compound | Study target | pIC50 |
| --- | --- | --- |
| O=C[C@@H](CO)O[C@H](C=O)n1cnc2c(=O)[nH]cnc21 [Dialdehyde-inosine, dialdehyde form of inosine] | NDV | 3.33 |
| O=C[C@@H](CO)O[C@H](C=O)n1cnc2c(=O)[nH]c(=O)[nH]c21 [Dialdehyde-xanthosine, dialdehyde form of xanthosine] | NDV | 3.28 |
| Nc1nc2c(ncn2[C@@H](CO)OC(CO)CO)c(=O)[nH]1 [Acyclic diol-guanosine, acyclic diol form of guanosine] | NDV | 2.17 |
| O=c1[nH]cnc2c1ncn2[C@@H](CO)OC(CO)CO [Acyclic diol-inosine, acyclic diol form of inosine] | NDV | 2.35 |

###

Reported CC50 values for the following compounds.
Test system: MDCK cell line
Assay: Cytotoxicity, MDCK cell tests
Settings: read-out: CC50 (Table 10, CPV); cytotoxicity

| Compound | CC50 |
| --- | --- |
| O=C[C@@H](CO)O[C@H](C=O)n1cnc2c(=O)[nH]c(=O)[nH]c21 [Dialdehyde-xanthosine, dialdehyde form of xanthosine] | > 10 mM |
| O=C[C@@H](CO)O[C@H](C=O)n1cnc2c(=O)[nH]cnc21 [Dialdehyde-inosine, dialdehyde form of inosine] | > 10 mM |
| O=c1[nH]cnc2c1ncn2[C@@H](CO)OC(CO)CO [Acyclic diol-inosine, acyclic diol form of inosine] | > 10 mM |
| O=c1[nH]c(=O)c2ncn([C@@H](CO)OC(CO)CO)c2[nH]1 [Acyclic diol-xanthosine, acyclic diol form of xanthosine] | > 10 mM |
| Nc1nc2c(ncn2[C@@H](C=O)O[C@@H](C=O)CO)c(=O)[nH]1 [Dialdehyde-guanosine, dialdehyde form of guanosine] | > 6 mM |

###

Assay: Cytotoxicity (WST-1 / DAPI staining), PRRSV test cells
Conditions: monkey, Marc-145 cells (monkey kidney)
Each item that follows carries a reported CC50.

| Molecule | CC50 |
| --- | --- |
| O=c1[nH]cnc2c1ncn2[C@@H](CO)OC(CO)CO [Acyclic diol-inosine, acyclic diol form of inosine] | > 8 mM |
| O=c1[nH]c(=O)c2ncn([C@@H](CO)OC(CO)CO)c2[nH]1 [Acyclic diol-xanthosine, acyclic diol form of xanthosine] | > 8 mM |
| Nc1nc2c(ncn2[C@@H](CO)OC(CO)CO)c(=O)[nH]1 [Acyclic diol-guanosine, acyclic diol form of guanosine] | > 8 mM |
| O=C[C@@H](CO)O[C@H](C=O)n1cnc2c(=O)[nH]c(=O)[nH]c21 [Dialdehyde-xanthosine, dialdehyde form of xanthosine] | > 10 mM |
| O=C[C@@H](CO)O[C@H](C=O)n1cnc2c(=O)[nH]cnc21 [Dialdehyde-inosine, dialdehyde form of inosine] | > 10 mM |

###

System: PRRSV (NA type, VR-2332 strain)
Assay: PRRSV infection inhibition in Marc-145 cells (immunofluorescence staining)
Assay type: cell-based, Porcine Reproductive and Respiratory Syndrome virus
Details: CC50/IC50

| Compound | Study target | SI (selectivity index), PRRSV |
| --- | --- | --- |
| O=c1[nH]cnc2c1ncn2[C@@H](CO)OC(CO)CO [Acyclic diol-inosine, acyclic diol form of inosine] | PRRSV (NA type, VR-2332 strain) | >17.6 |
| O=C[C@@H](CO)O[C@H](C=O)n1cnc2c(=O)[nH]cnc21 [Dialdehyde-inosine, dialdehyde form of inosine] | PRRSV (NA type, VR-2332 strain) | >105.3 |
| O=c1[nH]c(=O)c2ncn([C@@H](CO)OC(CO)CO)c2[nH]1 [Acyclic diol-xanthosine, acyclic diol form of xanthosine] | PRRSV (NA type, VR-2332 strain) | >20 |
| O=C[C@@H](CO)O[C@H](C=O)n1cnc2c(=O)[nH]c(=O)[nH]c21 [Dialdehyde-xanthosine, dialdehyde form of xanthosine] | PRRSV (NA type, VR-2332 strain) | >133.3 |
| Nc1nc2c(ncn2[C@@H](CO)OC(CO)CO)c(=O)[nH]1 [Acyclic diol-guanosine, acyclic diol form of guanosine] | PRRSV (NA type, VR-2332 strain) | >17.5 |
